These measurements were taken from patent US9656988B2.

molecular target: BTK (Homo sapiens (Human), UniProt Q06187); experiment: Btk in vitro inhibitory activity (one of Method A TR-FRET, Method B electrophoretic mobility shift, Method C radiometric filter binding); format: biochemical
Sequence (Q06187 whole entry): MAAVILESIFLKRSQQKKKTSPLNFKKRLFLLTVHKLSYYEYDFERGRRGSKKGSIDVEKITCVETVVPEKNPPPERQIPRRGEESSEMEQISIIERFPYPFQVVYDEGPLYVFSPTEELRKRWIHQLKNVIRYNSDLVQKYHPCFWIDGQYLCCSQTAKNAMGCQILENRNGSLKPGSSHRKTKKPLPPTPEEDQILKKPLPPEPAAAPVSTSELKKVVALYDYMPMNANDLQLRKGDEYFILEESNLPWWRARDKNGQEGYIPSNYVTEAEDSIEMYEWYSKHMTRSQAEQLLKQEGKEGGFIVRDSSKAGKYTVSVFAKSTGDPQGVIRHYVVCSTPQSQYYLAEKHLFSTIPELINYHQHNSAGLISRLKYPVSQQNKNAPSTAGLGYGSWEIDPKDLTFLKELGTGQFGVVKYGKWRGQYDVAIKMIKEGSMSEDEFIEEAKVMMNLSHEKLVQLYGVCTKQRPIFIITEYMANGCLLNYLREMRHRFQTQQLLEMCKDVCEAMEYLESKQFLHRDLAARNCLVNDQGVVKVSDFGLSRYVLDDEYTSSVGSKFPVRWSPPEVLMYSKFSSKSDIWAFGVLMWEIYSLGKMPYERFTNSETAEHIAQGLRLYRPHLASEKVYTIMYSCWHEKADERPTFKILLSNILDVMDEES
pIC50: −log10 of the molar value.

{"Molecule Smiles": "NC(=O)c1ncc(N2CCC[C@@H](NC(=O)c3cc4ccccc4s3)C2)nc1Nc1ccc(C2CCN(C3CC3)CC2)cc1", "pIC50": "7.00 to 8.00"}
{"Molecule Smiles": "COc1cc(Nc2nc(N3CCC[C@@H](NC(=O)N(C)C)C3)cnc2C(N)=O)ccc1C", "pIC50": "6.00 to 7.00"}
{"Molecule Smiles": "N#CCC(=O)N1CCC(c2ccc(Nc3nc(N4CCC[C@@H](NC(=O)N5CCCCC5)C4)nnc3C(N)=O)cc2)CC1", "pIC50": "7.00 to 8.00"}
{"Molecule Smiles": "CN(C)C(=O)N(C)[C@@H]1CCCN(c2cnc(C(N)=O)c(Nc3ccc(N4CCS(=O)(=O)CC4)cc3)n2)C1", "pIC50": "7.00 to 8.00"}

###

target: BTK (Homo sapiens (Human)); test: Btk in vitro inhibitory activity (one of Method A TR-FRET, Method B electrophoretic mobility shift, Method C radiometric filter binding); assay type: biochemical; settings: determined using one of the methods of Example 355a, 355b and 355c; read-out: BTK IC50
# IC50 annotations

{"Molecule Smiles": "NC(=O)c1nnc(N2CC[C@@H](NC(=O)c3ccccc3)C2)nc1Nc1ccc(C(=O)N2CCOCC2)cc1", "Experimental System": "BTK (Homo sapiens (Human))", "IC50": "0.1 to 1 µM"}
{"Molecule Smiles": "NC(=O)c1nnc(N2CCC[C@@H](NC(=O)N3CCCCC3)C2)nc1Nc1ccc(C2CCN(C=O)CC2)cc1", "Experimental System": "BTK (Homo sapiens (Human))", "IC50": "< 0.01 µM"}
{"Molecule Smiles": "COc1ccc(C(=O)N[C@@H]2CCCN(c3cnc(C(N)=O)c(Nc4ccc(C5CCNCC5)c(F)c4)n3)C2)cc1", "Experimental System": "BTK (Homo sapiens (Human))", "IC50": "< 0.01 µM"}
{"Molecule Smiles": "Cc1cccc(Nc2nc(N3CCC[C@@H](NC(=O)c4ccc(C(C)(C)C)cc4)C3)nnc2C(N)=O)c1", "Experimental System": "BTK (Homo sapiens (Human))", "IC50": "1 to 10 µM"}
{"Molecule Smiles": "CN(C(=O)N[C@@H]1CCCN(c2cnc(C(N)=O)c(NC3CC3)n2)C1)c1ccccc1", "Experimental System": "BTK (Homo sapiens (Human))", "IC50": "1 to 10 µM"}
{"Molecule Smiles": "CN(C)C(=O)N[C@@H]1CCCN(c2cnc(C(N)=O)c(Nc3ccc(C4(CN)CCCC4)cc3)n2)C1", "Experimental System": "BTK (Homo sapiens (Human))", "IC50": "0.01 to 0.1 µM"}
{"Molecule Smiles": "C[C@@H]1CCN(c2cnc(C(N)=O)c(Nc3ccc(C4CCN(C5CCCC5)CC4)cc3)n2)C[C@@H]1NC(=O)N(C)C", "Experimental System": "BTK (Homo sapiens (Human))", "IC50": "0.01 to 0.1 µM"}
{"Molecule Smiles": "CC(C)C(=O)N[C@@H]1CCCN(c2nnc(C(N)=O)c(Nc3ccc(C(=O)N4CCOCC4)cc3)n2)C1", "Experimental System": "BTK (Homo sapiens (Human))", "IC50": "0.01 to 0.1 µM"}
{"Molecule Smiles": "COc1ccc(C(=O)N[C@@H]2CCCN(c3cnc(C(N)=O)c(Nc4ccc(N5CCS(=O)(=O)CC5)cc4)n3)C2)cc1", "Experimental System": "BTK (Homo sapiens (Human))", "IC50": "< 0.01 µM"}
{"Molecule Smiles": "NC(=O)c1nnc(N2CCC[C@@H](NC(=O)N3CCCCC3)C2)nc1Nc1cnc2ccccc2c1", "Experimental System": "BTK (Homo sapiens (Human))", "IC50": "0.1 to 1 µM"}
{"Molecule Smiles": "COc1ccc(C(=O)N[C@@H]2CCCN(c3nnc(C(N)=O)c(Nc4ccc(N5CCC(C(=O)N(C)C)CC5)cc4)n3)C2)cc1", "Experimental System": "BTK (Homo sapiens (Human))", "IC50": "< 0.01 µM"}
{"Molecule Smiles": "CCC(=O)N1CCC(c2ccc(Nc3nc(N4CCC[C@@H](NC(=O)c5ccc(OC)cc5)C4)cnc3C(N)=O)cc2)CC1", "Experimental System": "BTK (Homo sapiens (Human))", "IC50": "< 0.01 µM"}
{"Molecule Smiles": "COc1ccc(C(=O)N[C@@H]2CCCN(c3cnc(C(N)=O)c(Nc4ccc(C5CCN(CC(F)(F)F)CC5)cc4)n3)C2)cc1", "Experimental System": "BTK (Homo sapiens (Human))", "IC50": "0.01 to 0.1 µM"}
{"Molecule Smiles": "CN1CCC(c2ccc(Nc3nc(N4CCC[C@@H](NC(=O)c5ccc(F)cc5)C4)cnc3C(N)=O)cc2)CC1", "Experimental System": "BTK (Homo sapiens (Human))", "IC50": "< 0.01 µM"}
{"Molecule Smiles": "NC(=O)c1nnc(N2CCC[C@@H](NC(=O)c3ccc(Cl)s3)C2)nc1Nc1ccc(C(=O)N2CCOCC2)cc1", "Experimental System": "BTK (Homo sapiens (Human))", "IC50": "< 0.01 µM"}
{"Molecule Smiles": "CCOC(=O)N[C@@H]1CCCN(c2cnc(C(N)=O)c(Nc3ccc(C4CCN(C5CCCC5)CC4)cc3)n2)C1", "Experimental System": "BTK (Homo sapiens (Human))", "IC50": "< 0.01 µM"}
{"Molecule Smiles": "NC(=O)c1ncc(N2CCCC[C@@H](NC(=O)C3CC3)C2)nc1Nc1ccc(C2CCN(C3CCCC3)CC2)cc1", "Experimental System": "BTK (Homo sapiens (Human))", "IC50": "< 0.01 µM"}
{"Molecule Smiles": "Cc1ccc(Nc2nc(N3CCC[C@@H](NC(=O)c4ccc(C(C)(C)C)cc4)C3)nnc2C(N)=O)cc1", "Experimental System": "BTK (Homo sapiens (Human))", "IC50": "1 to 10 µM"}
{"Molecule Smiles": "CN(C)C(=O)N[C@@H]1CCCN(c2cnc(C(N)=O)c(Nc3ccc(OC4CCCC4)cc3)n2)C1", "Experimental System": "BTK (Homo sapiens (Human))", "IC50": "0.01 to 0.1 µM"}
{"Molecule Smiles": "CN(C)C(=O)N[C@@H]1CCCN(c2cnc(C(N)=O)c(Nc3ccc(S(C)(=O)=O)cc3)n2)C1", "Experimental System": "BTK (Homo sapiens (Human))", "IC50": "< 0.01 µM"}
{"Molecule Smiles": "C[C@@H]1[C@H](NC(=O)N(C)C)CCCN1c1cnc(C(N)=O)c(Nc2ccc(C3(C(N)=O)CC3)cc2)n1", "Experimental System": "BTK (Homo sapiens (Human))", "IC50": "< 0.01 µM"}
{"Molecule Smiles": "CN1CCCN([C@@H]2CCCN(c3cnc(C(N)=O)c(Nc4ccc(C5CCN(C6CC6)CC5)cc4)n3)C2)C1=O", "Experimental System": "BTK (Homo sapiens (Human))", "IC50": "< 0.01 µM"}
{"Molecule Smiles": "NC(=O)c1ncc(N2CCC[C@@H](NC(=O)c3ccc(Cl)s3)C2)nc1Nc1ccc(C2CCN(C3CC3)CC2)cc1", "Experimental System": "BTK (Homo sapiens (Human))", "IC50": "0.01 to 0.1 µM"}
{"Molecule Smiles": "Cc1cc(Nc2nc(N3CCC[C@@H](NC(=O)N(C)C)[C@H]3C)cnc2C(N)=O)sn1", "Experimental System": "BTK (Homo sapiens (Human))", "IC50": "< 0.01 µM"}
{"Molecule Smiles": "CC(C)(C)c1ccc(NC(=O)N[C@@H]2CCCN(c3nnc(C(N)=O)c(Nc4ccc(C(=O)N5CCOCC5)cc4)n3)C2)cc1", "Experimental System": "BTK (Homo sapiens (Human))", "IC50": "0.01 to 0.1 µM"}
{"Molecule Smiles": "CC(C)Oc1ccc(C(=O)N[C@@H]2CCCN(c3nnc(C(N)=O)c(Nc4ccc(C(=O)N5CCOCC5)cc4)n3)C2)cc1", "Experimental System": "BTK (Homo sapiens (Human))", "IC50": "0.01 to 0.1 µM"}
{"Molecule Smiles": "NC(=O)c1nnc(N2CCC[C@@H](NC(=O)c3ccc4c(c3)nnn4C3CC3)C2)nc1Nc1ccc(C(=O)N2CCOCC2)cc1", "Experimental System": "BTK (Homo sapiens (Human))", "IC50": "< 0.01 µM"}
{"Molecule Smiles": "CN1CCC(C(=O)N[C@@H]2CCCN(c3nnc(C(N)=O)c(Nc4ccc(C(=O)N5CCOCC5)cc4)n3)C2)CC1", "Experimental System": "BTK (Homo sapiens (Human))", "IC50": "0.01 to 0.1 µM"}
